- System: CCRF-CEM leukemia
- test-name: NCI-60 one-dose screen, 48 h
- measurement-parameters: 10 µM unless noted
This is part of a sample that, as a whole, favours compounds with a hit. Of some 83,000 tested, about 20% had one in any assay. Active and inactive are the calls of the source. Rule for the calls: active = growth percent below 10; inactive = the rest.
The categories you may choose from are active, inactive

Below are worked cases with known answers.
{"compound": "CC(C)[C@@H](C)/C=C/[C@@H](C)[C@H]1CCC2=C3C=CC4=CC(=O)CC[C@]4(C)[C@H]3CC[C@@]21C", "group": "inactive"}
{"compound": "C=CC(=O)N1CCC(Oc2cc3c(Nc4ccc(Cl)c(Cl)c4F)ncnc3cc2OC)CC1", "group": "inactive"}
{"compound": "C=CC(=O)Nc1cccc(Nc2nc(Nc3ccc(N4CCN(C(C)=O)CC4)cc3OC)ncc2C(F)(F)F)c1", "group": "inactive"}
{"compound": "COc1cc2c(cc1OCCCCN1CCN(CC(=O)Nc3ccc(Cl)cc3C(=O)c3ccccc3Cl)CC1)N=CC1CCCN1C2=O (stereo not drawn)", "group": "active"}
{"compound": "Cc1nn(-c2nc3ccccc3[nH]2)c2c1C(c1ccc(O)cc1)CC(=O)N2 (stereo not drawn)", "group": "inactive"}
{"compound": "C=CCCCC(=O)CCC(=O)OCC1O[C@@H](O[C@@H]2C(O)[C@@H](OC(C)=O)C(C)O[C@H]2O[C@H](CC=C)CCCCC)C(O)[C@@H](OC(=O)/C(C)=C/C)[C@@H]1OC(=O)/C=C/c1ccccc1 (stereo partly drawn)", "group": "inactive"}

Look up the recorded call for Cn1cc(-c2[nH]c3cc(NC(=O)[C@H](N)C4CCCCC4)cc4c3c2C=NNC4=O)cn1 in this test.
active

Look up the recorded call for Cn1cc(-c2ncnc3ccc(-c4cnc(Cl)c(NS(C)(=O)=O)c4)cc23)c2ccccc21 in this test.
inactive

Look up the recorded call for COc1ccc(/C(C)=C(\c2ccc(Cl)cc2)c2ccc(OCCN3CCCCCC3)cc2)cc1 in this test.
inactive

----------
Listing: growth of selected molecules
- Test system: NCI-H460 lung
- test-name: NCI-60 one-dose screen, 48 h (100 = growth as untreated, 0 = no growth, -100 = all killed)
- measurement-parameters: 10 µM unless noted
The panel holds about 83,000 compounds, 20% with a hit somewhere; the sample as a whole holds those more often.
Give the value in % but do not write % after it.

Example molecules with recorded growth:
{"molecule": "C=CCCCOC1[C@H](OCc2ccccc2)C(OCc2ccccc2)C(OC)O[C@@H]1CNC(=O)c1cccc(I)c1 (stereo partly drawn)", "growth / %": -7.83}
{"molecule": "Cc1cc(N(CCNc2ccnc3cc(Cl)ccc23)Cc2cccs2)nc(Cl)n1", "growth / %": -10.7}
{"molecule": "CC(=Nc1ccccc1)C1=C(O)C(Cc2ccccc2)NC1=O (stereo not drawn)", "growth / %": 3.86}

Give growth for the following molecule: CCCCCCC1(/C=N/NC(N)=O)NC(=O)NC1=O (stereo not drawn)
111

Give growth for the following molecule: Cc1nn(-c2nc3ccccc3[nH]2)c2c1C(c1ccc(O)cc1)CC(=O)N2 (stereo not drawn)
57.4

Give growth for the following molecule: C=CC(=O)N1CCC(Oc2cc3c(Nc4ccc(Cl)c(Cl)c4F)ncnc3cc2OC)CC1
39.3

Give growth for the following molecule: CC(CCCC(=O)O)c1ccoc1 (stereo not drawn)
110

Give growth for the following molecule: CO/C=C/C(=O)c1cc2cnc3c(=N)cc(NC(=O)C(C)C)c([nH]1)c23
5.42

Give growth for the following molecule: C=C1CC[C@@H]2[C@](C)(COC(C)=O)[C@H](OC(C)=O)CC[C@@]2(C)[C@@H]1C/C=C1/C(=O)OC[C@H]1OC(C)=O
98

Give growth for the following molecule: COc1cnc2c(c1)C(=O)c1c-2n(CCCNC2=NCCS2)c(=O)c2cc(Cl)ccc12
-80.3

Give growth for the following molecule: CC/C(=C(/c1ccc(Cl)cc1)c1ccc(OCCN2CCCCC2)cc1)c1ccc(Cl)cc1
79.7
